Data credit: paper PMC3269340

PROTOCOL DETAILS: Pharmacokinetics in rats after single iv, po or sc dose (plasma and brain)
Assay type: in vivo, Sprague-Dawley rats
STUDY CONDITIONS: male, Sprague-Dawley, 1.22 mg/kg; rat brain, PO 1.22 mg eq./kg
ATTRIBUTE MEASURED: AUC(0-t)

Prompt: Can you share its AUC(0-t)? I mean this compound: CC12CC3CC(C)(C1)CC(N)(C3)C2 [memantine]
Response: 13.1 µM·h

====

PROTOCOL DETAILS: Pharmacokinetics in rats after single iv, po or sc dose (plasma and brain)
Format: in vivo, Sprague-Dawley rats
STUDY CONDITIONS: male, Sprague-Dawley, rat, plasma, po, 10 mg/kg, rat plasma, PO 10.0 mg eq./kg; read-out: Half-life (t½) (converted)
Protocol: Sprague Dawley (SD) rats (138 adult males), and C57Bl/6 mice (140 adult males), were obtained (Hilltop Laboratories, Scottsdale, PA); 123 per species were used in the study and the remainder provided blank matrix. […] The area under the plasma concentration versus time curve (AUC) was calculated using the linear trapezoidal method (linear interpolation). […] Concentrations of memantine in rat and mouse plasma and brain were determined using an LC-MS/MS assay developed at ABC Laboratories.
ATTRIBUTE MEASURED: half-life (min)
Field: numeric (min). Do not append units.

Prompt: Would you mind telling me what half-life value was observed for CC12CC3CC(C)(C1)CC(N)(C3)C2 [memantine] ?
Response: 235
